Assay Remarks: qHTS Screen of the MIPE 4.0 Collection Against Ewings Sarcoma (RDES) (AID 1259252); note: nearly all actives have a fitted effect of over 35% in size
Setup Conditions: RD-ES Ewing sarcoma viability, CellTiter-Glo, 48 h; series mostly up to 45.8 µM
Records with an inconclusive call do not appear. The source made the active and inactive calls. Calls come from the whole dose curve; as a rule, active = well fitted inhibition curve with a large enough effect; inconclusive = small, poorly fitted or top-dose-only effect; inactive = no such curve, though single readings can be large or run the other way.
The reply should be one of these categories: active, inactive

Challenge: What did the test return for CCOc1cc2c(c(F)c1OCC)C(=N)N(CC(=O)c1cc(N3CCOCC3)c(OC)c(C(C)(C)C)c1)C2 ?
Response given: active

Challenge: Any idea what this test logged for Cc1cnc(NC(=O)Nc2cc(Br)c(C)cc2OC[C@@H]2CNCCO2)cn1 ?
Response given: active

Challenge: Dear all, I need the recorded test outcome for CC(=O)O[C@H]1C[C@@H]2CC[C@H]3[C@H]4C[C@H]([N+]5(C)CCCCC5)[C@@H](OC(C)=O)[C@@]4(C)CC[C@@H]3[C@@]2(C)C[C@H]1N1CCCCC1 , thank you.
Response given: active

Challenge: Assay result, entry C#C[C@]1(O)CC[C@@H]2[C@@H]3CCC4=CC(=O)CC[C@@H]4[C@H]3CC[C@@]21CC — outcome?
Response given: inactive

Challenge: # outcome recorded in this test, key = CCOC(=O)[C@@H](N)Cc1ccc(-c2cc(O[C@H](c3ccc(Cl)cc3-n3ccc(C)n3)C(F)(F)F)nc(N)n2)cc1
Response given: active

Challenge: Query: recorded result category for CCCCCCCCCCCCc1ccc(S(=O)(=O)Nc2nncs2)cc1 in this test
Response given: inactive

Challenge: State the result this test recorded for Nc1nc(N)c2nc(-c3cccc(O)c3)c(-c3cccc(O)c3)nc2n1 .
Response given: active

Challenge: Per the assay record, what outcome was assigned to C[C@H]1O[C@H](O[C@H]2[C@H](O)[C@@H](O)[C@@H](O[C@H]3[C@H](O)[C@@H](O)C(O)O[C@H]3CO)O[C@H]2CO)[C@H](O)[C@@H](O)[C@H]1N[C@H]1C=C(CO)[C@@H](O)[C@H](O)[C@@H]1O (some centres undefined) ?
Response given: inactive

Challenge: # outcome recorded in this test, key = CC(=O)OC[C@@H]1O[C@@H](n2ccc(=O)[nH]c2=O)[C@H](OC(C)=O)[C@H]1OC(C)=O
Response given: inactive

Challenge: How did this test come out for Cc1cncc2cccc(S(=O)(=O)N3CCCN(C(=O)CN)C[C@@H]3C)c12 ?
Response given: active

Challenge: Given C[C@@H]1C(=O)O[C@H]2CC34[C@H]5C[C@@H](C(C)(C)C)C36[C@H](OC(=O)[C@@H]6O)O[C@@]4(C(=O)O5)[C@]21O (some centres undefined) , state the outcome it received in this test.
Response given: inactive

Challenge: Would you mind telling me which call this test gave O=C(C=Cc1ccc(CN(CCO)CCc2c[nH]c3ccccc23)cc1)NO ?
Response given: active

Challenge: I'd appreciate the recorded outcome for c1coc(CNc2ncnc3nc[nH]c23)c1 from this test.
Response given: inactive

Challenge: // return assay outcome for Cc1coc2c1C(=O)C(=O)c1c-2ccc2c(C)cccc12
Response given: inactive

Challenge: Hello, I am checking results. What call was entered for C[C@@H]1CC[C@@]2(OC1)OC1CC3C4CC=C5CC(O)CCC5(C)C4CCC3(C)C1[C@@H]2C (some centres undefined) ?
Response given: inactive

Challenge: What did this assay record as the result for Cc1cn([C@@H]2O[C@H](CO)[C@@H](O)[C@H]2F)c(=O)[nH]c1=O ?
Response given: inactive

Challenge: Which result was noted for this compound in the test: Cc1cc(Nc2ncc3c(n2)N(C)C(=O)N(c2cc(NC(=O)c4cccc(C(F)(F)F)c4)ccc2C)C3)n(C)n1
Response given: active

Challenge: Which result was noted for this compound in the test: CCN(CC)CCCCNc1ncc2c(n1)N(C)C(=O)N(c1c(Cl)c(OC)cc(OC)c1Cl)C2
Response given: active

Challenge: Could you kindly confirm the outcome this assay logged for CN1C(C(=O)Nc2ccccn2)=C(O)c2sc(Cl)cc2S1(=O)=O ?
Response given: active

Challenge: # outcome recorded in this test, key = OCC(O)C(O)C(O)CO (centres undefined)
Response given: inactive

Challenge: Which outcome was assigned to C=CC(=O)Nc1ccc2ncnc(Nc3ccc(OCc4cccc(F)c4)c(Cl)c3)c2c1 in this test?
Response given: active

Challenge: I'd appreciate the recorded outcome for CC(C=CC(=O)NO)=C[C@@H](C)C(=O)c1ccc(N(C)C)cc1 from this test.
Response given: active

Challenge: Which outcome was entered for the compound C[C@]12C=CC(=O)N[C@@H]1CC[C@H]1[C@H]3CC[C@@H](C(=O)Nc4cc(C(F)(F)F)ccc4C(F)(F)F)[C@@]3(C)CC[C@@H]12 in this test?
Response given: inactive

Challenge: Assay result, entry N#Cc1c(C2CCNCC2)cc(-c2c(O)cccc2OCC2CC2)nc1N — outcome?
Response given: active

Challenge: Hi, sorry to bother you, what did the test record for CC(C)(O)[C@H]1CC[C@@](C)([C@H]2[C@@H](O)C[C@@]3(C)[C@@H]4C[C@H](O[C@@H]5O[C@H](CO)[C@@H](O)[C@H](O)[C@@H]5O)[C@H]5C(C)(C)[C@@H](O[C@@H]6OC[C@@H](O)[C@H](O)[C@@H]6O)CC[C@@]56C[C@@]46CC[C@]23C)O1 ?
Response given: active

Challenge: Give the logged outcome of this assay for the following compound: C[C@]12CCC(=O)C=C1[C@@H]1CC1[C@H]1[C@H]3[C@@H]4C[C@H]4[C@@]4(CCC(=O)O4)[C@@]3(C)CC[C@H]12 (some centres undefined)
Response given: inactive

Challenge: What outcome does the record of this test show for C#Cc1cccc(Nc2ncnc3cc(OCCOC)c(OCCO)cc23)c1 ?
Response given: active

Challenge: Call for entry N#CNC(=NCCCCCCOc1ccc(Cl)cc1)Nc1ccncc1 :
Response given: inactive

Challenge: Please indicate how the test categorized CC1=C(C(=O)Nc2cc3cn[nH]c3cc2F)C(c2ccc(Cl)cc2F)N=C(c2ccnc(Cl)c2)N1 (centres undefined) .
Response given: active

Challenge: Outcome logged for CC[C@H](CC[C@@H](C)[C@H]1CC[C@H]2[C@@H]3CC=C4C[C@@H](O)CC[C@]4(C)[C@@H]3CC[C@]12C)C(C)C in this assay:
Response given: inactive

Challenge: // return assay outcome for CCc1ccc(C(=O)Nc2cc(CN3CCN(C)CC3)cc(C(F)(F)F)c2)cc1C#Cc1cnc2ccnn2c1
Response given: active

Challenge: Please let me know the test result on file for CC(=O)OCC(=O)[C@@]1(O)CC[C@H]2[C@@H]3CCC4=CC(=O)CC[C@]4(C)[C@@H]3C(=O)C[C@@]21C .
Response given: inactive

Challenge: Which outcome did this test record for the compound COc1cc(C)c(C=CC(C)=CC=CC(C)=CC(=O)O)c(C)c1C ?
Response given: inactive

Challenge: Answer briefly: the call reported for C=C[C@@H]1CN2CCC1C[C@H]2[C@H](O)c1ccnc2ccc(OC)cc12 (some centres undefined) in this assay.
Response given: inactive
